- ASSAYED_SYSTEM: T1, DOK1 PTB (151–256) (human, UniProt Q99704 151-256)
- T1 sequence: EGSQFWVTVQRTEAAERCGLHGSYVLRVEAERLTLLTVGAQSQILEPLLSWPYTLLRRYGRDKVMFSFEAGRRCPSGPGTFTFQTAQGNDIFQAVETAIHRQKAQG
- EXPERIMENT_DESCRIPTION: fluorescence polarisation
pKd: −log10 of the molar value. * marks the point of attachment. FITC = O=C1OC2(c3ccc(O)cc3Oc3cc(O)ccc32)c2ccc(NC(=S)*)cc21
EXPERIMENTAL_ENDPOINT: pKd

// query Fill in the blank: the reported pKd of {FITC}-SKGENNPGFQNT-NH2 [FITC-labeled ACE2(787–798) peptide] is ____.
// result < 4.00
